Test system: H358 cells
TEST_DESCRIPTION: Cell activity experiment: activity test of H358 cells (MTT, 5 days)
Assay type: cell-based
TEST_CONTEXT: Homo sapiens, NCI-H358, 120 h, 5 days incubation, absorbance 492 nm
Protocol: Example: Cell Activity Experiment 1. Cells: H358 purchased from Shanghai EK-Bioscience Biotechnology Co., Ltd. 2. Reagents: RPMI 1640 medium, Tryple, MTT (5 mg/mL), DMSO, and DPBS. 3. Instruments: an incubator at 37° C. and 5% CO2, a UTRAO microplate reader, a biosafety cabinet, a cell counting plate, and an Optec optical microscope. 4. Experimental consumables: 96-well plate Item No.: 3599, and 96-well round-bottomed dispensing plate. Experimental Steps of Activity Test of H358 Cells: 1. […]
OBSERVABLE: IC50 (nM)

(a) C=C(F)C(=O)N1CCN(c2nc(OCC34CCCN3CCC4)nc3cc(-c4cccc5ccc(F)c(Cl)c45)ccc23)C[C@@H]1CC#N [Example 98]
(b) C=C(F)C(=O)N1CC[C@@H]2[C@H]1CN2c1nc(OC[C@@]23CCCN2C[C@H](F)C3)nc2c(F)c(-c3cccc4c3CCCC4)ncc12 [Example 16]
(c) C=C(F)C(=O)N1CCN(c2nc(OC[C@@H]3CCCN3C)nc3cc(-c4cccc5ccc(F)c(Cl)c45)ccc23)C[C@@H]1CC#N [Example 94]
input: # order the compounds above by IC50, highest value first List labels; respect the requested ordering.
output: c, a, b

(a) C=C(F)C(=O)N1CCN(c2nc(OCC3(CN4CCCC4)CC3)nc3c(F)c(-c4cccc5c4C4CC4C5)ncc23)C[C@@H]1CC#N (single isomer, unassigned) [Example 867]
(b) C=CC(=O)N1CCN(c2nc(OCC34CCCN3CCC4)nc3c(F)c(-c4cccc5c4[C@H]4C[C@H]4C5)ncc23)C[C@@H]1CC#N [Example 63]
(c) C=CC(=O)N1CCN(c2nc(OC[C@@H]3C[C@@H](F)CN3C)nc3cc(-c4cncc5cccc(Cl)c45)ccc23)C[C@@H]1CC#N [Example 128]
input: Returns the items ordered by IC50, from maximum to minimum. List labels; respect the requested ordering.
output: c, a, b
(c: 20 nM, a: 5.9 nM, b: 2.2 nM)

* * *

Tested on: H358 cells
TEST_DESCRIPTION: Cell activity experiment: activity test of H358 cells (MTT, 5 days)
Type: cell-based
TEST_CONTEXT: Homo sapiens, NCI-H358, 120 h, 5 days incubation, absorbance 492 nm
pIC50: −log10 of the molar value.
OBSERVABLE: pIC50

The cases that follow already have their pIC50 on record.
{"STRUCTURE": "C=C(F)C(=O)N1CCN(c2nc(OC[C@@H]3CCCN3C)nc3c(F)c(-c4cccc5c4CCCC5)ncc23)C[C@@H]1CC#N", "pIC50": 7.15}
{"STRUCTURE": "C=CC(=O)N1CCN(c2nc(OC[C@@]34CCCN3C[C@H](F)C4)nc3c(F)c(-c4cccc5ccc(F)c(Cl)c45)ccc23)C[C@@H]1CC#N", "pIC50": 9.96}
{"STRUCTURE": "C=CC(=O)N1CCN(c2nc(OC[C@@]34CCCN3C[C@H](F)C4)nc3c(F)c(-c4cccc5c4[C@@H]4C[C@@H]4C5)ncc23)C[C@@H]1CC#N", "pIC50": 9.70}
{"STRUCTURE": "C=CC(=O)N1CCN(c2nc(OC[C@@]34CCCN3C[C@H](F)C4)nc3c(OC4CC4)c(-c4cccc5ccc(F)c(Cl)c45)c(Cl)cc23)C[C@@H]1CC#N", "pIC50": 7.51}

(a) C=C(F)C(=O)N1CC[C@@H]2[C@H]1CN2c1nc(OC[C@@H]2C[C@@H](F)CN2C)nc2c(F)c(-c3cncc4c3CCCC4)ncc12
(b) C=C(F)C(=O)N1CC[C@@H]2[C@H]1CN2c1nc(OC[C@@]23CCCN2C[C@H](F)C3)nc2c(F)c(-c3ccc(F)c4c3CCCC4)ncc12
input: I'd appreciate it if you could identify which of a and b has the greater pIC50. Pick one and reply with its label.
output: b
(b: 7.46, a: 7.19)
